- Test system: HT29 colon
- procedure_text: NCI tumour cell line growth inhibition, 48 h
# GI50 listing for each entry below

compound: O=C1/C(=C/c2ccccc2[N+](=O)[O-])COc2ccc(O)c(O)c21
system_name: HT29 colon
GI50: 0.529 µM
//
compound: Fc1ccc(C2C3CCOc4c(ccc5ccccc45)C3=NN2c2ccccc2)cc1 (stereo not drawn)
system_name: HT29 colon
GI50: > 100 µM
//
compound: COC(=O)[C@]12CC[C@@H](C)[C@H](C)[C@@H]1C1=CC[C@@H]3[C@@]4(C)CC(=O)[C@H](O)[C@@](C)(CO)[C@@H]4C(=O)C[C@@]3(C)[C@]1(C)CC2
system_name: HT29 colon
GI50: 14.5 µM
//
compound: COc1ccc2c(c1)C(=O)c1c-2c(N2CCN(C(=O)CCNCCNCCO)CC2)nc2ccccc12
system_name: HT29 colon
GI50: 4.6 µM
//
compound: COc1ccc2nc3cc(Cl)ccc3c(Nc3cc(C(C)C)c(O)cc3C)c2c1
system_name: HT29 colon
GI50: 2.31 µM
//
compound: COc1cc(/C=C/c2cc(O)c(C/C=C(\C)CC/C=C(\C)CO)c(O)c2)cc2c1O[C@]1(C)CC[C@@H](O)C(C)(C)[C@H]1C2
system_name: HT29 colon
GI50: 31.1 µM
//
compound: O=C(O)c1cn(C2CC2)c2cc(N3CCN(Cc4ccc5ccccc5c4O)CC3)c(F)cc2c1=O
system_name: HT29 colon
GI50: 4.35 µM
//
compound: O=C1N=C(Nc2nc(-c3csc(NC4=NC(=O)/C(=C\c5ccc(Cl)cc5)S4)n3)cs2)S/C1=C/c1ccc(Cl)cc1
system_name: HT29 colon
GI50: 23.6 µM
